Origin of measurements: patent US20090068169A1

# IC50 per entry
biological target: Fc portion of human IgG; construct: fused on or other part: horseradish peroxidase chemically conjugated to the IgG (detection label); test: Competitive protein A binding ELISA; conditions: inhibition of binding of protein A to HRP-human IgG; assay in PBS
Respond with a number, then the unit of measure.

Consider the worked cases shown below.
[[record]]
molecule = "Nc1ccc(CNc2nc(Nc3cccc(N)c3)nc(Nc3cccc(N)c3)n2)cc1 [Compound 13]"
test_result = "1 nM"

[[record]]
molecule = "Nc1cccc(Nc2nc(NCCO)nc(Nc3ccc(Cl)cc3)n2)c1 [Compound 44]"
test_result = "56 nM"

[[record]]
molecule = "Nc1cccc(Nc2nc(N)nc(Nc3cccc(N)c3)n2)c1 [Compound 33]"
test_result = "170 nM"

[[record]]
molecule = "Nc1cccc(Nc2nc(NCCCCCCO)nc(Nc3cccc(N)c3)n2)c1 [Compound 19]"
test_result = "15 nM"

[[record]]
molecule = "Nc1cccc(CCNc2nc(NCC3CC3)nc(Nc3cccc(N)c3)n2)c1 [Compound 30]"
test_result = "88 nM"

[[record]]
molecule = "Nc1cccc(Nc2nc(NCCO)nc(Nc3ccc(F)cc3)n2)c1 [Compound 28]"
test_result = "62 nM"

[[record]]
molecule = "Nc1cccc(Nc2nc(N)nc(NCc3ccccc3N)n2)c1 [Compound 18]"
test_result = "97 nM"

[[record]]
molecule = "Nc1cccc(Nc2nc(NCCO)nc(NCc3ccc(F)cc3)n2)c1 [Compound 42]"
test_result = "39 nM"


Consider now this further molecule.
Looking for the measured IC50 of COc1ccc(Nc2nc(Nc3cccc(N)c3)nc(NC3CC3)n2)cc1 [Compound 26] , can you help?
126 nM

###

biological target: Fc portion of human IgG; construct: fused on or other part: horseradish peroxidase chemically conjugated to the IgG (detection label); experiment: Competitive protein A binding ELISA; conditions: inhibition of binding of protein A to HRP-human IgG; assay in PBS
measured.metric: IC50 (nM)
Give your result in nM as a bare value.

[[record]]
compound = "Nc1ccc(CNc2nc(N)nc(Nc3cccc(N)c3)n2)cc1 [Compound 17]"
system_under_test = "Fc portion of human IgG"
measured_metric = "IC50"
test_result = 65


Looking for the measured IC50 of Nc1ccc(CCNc2nc(NCc3cccc(N)c3)nc(Nc3cccc(N)c3)n2)cc1 [Compound 10] , can you help?
106

Looking for the measured IC50 of Nc1cccc(Nc2nc(NCCO)nc(Nc3cccc(F)c3)n2)c1 [Compound 41] , can you help?
36

Looking for the measured IC50 of Nc1cccc(Nc2nc(NCCO)nc(NCc3ccccc3F)n2)c1 [Compound 43] , can you help?
86

Looking for the measured IC50 of Nc1cccc(Nc2nc(NCCCCO)nc(Nc3cccc(N)c3)n2)c1 [Compound 39] , can you help?
40

###

target: Fc portion of human IgG; construct: fused on or other part: horseradish peroxidase chemically conjugated to the IgG (detection label); assay: Competitive protein A binding ELISA; settings: inhibition of binding of protein A to HRP-human IgG; assay in PBS
measured.metric: log10(IC50) (log10 of the value in nM)
The figures below represent log10 of IC50, where IC50 is stated in nM.

Consider the worked cases shown below.
[[record]]
compound = "COc1ccc(Nc2nc(NCCO)nc(Nc3cccc(N)c3)n2)cc1 [Compound 23]"
system_under_test = "Fc portion of human IgG"
measured_metric = "log10(IC50)"
test_result = 1.93

[[record]]
compound = "Nc1cccc(Nc2nc(NCC3CC3)nc(Nc3cccc(N)c3)n2)c1 [Compound 31]"
system_under_test = "Fc portion of human IgG"
measured_metric = "log10(IC50)"
test_result = 1.58

[[record]]
compound = "CN(C[C@H](O)[C@@H](O)[C@H](O)[C@H](O)CO)c1nc(Nc2cccc(N)c2)nc(Nc2cccc(N)c2)n1 [Compound 35]"
system_under_test = "Fc portion of human IgG"
measured_metric = "log10(IC50)"
test_result = 1.57

[[record]]
compound = "Nc1ccc(CCNc2nc(Nc3cccc(N)c3)nc(NC3CCC3)n2)cc1 [Compound 8]"
system_under_test = "Fc portion of human IgG"
measured_metric = "log10(IC50)"
test_result = 1.72


Give log10(IC50) (Fc portion of human IgG) of the following compound: Nc1cccc(CNc2nc(Nc3cccc(N)c3)nc(Nc3cccc(N)c3)n2)c1 [Compound 12]
0.48

Give log10(IC50) (Fc portion of human IgG) of the following compound: Nc1ccc(CCNc2nc(Nc3cccc(N)c3)nc(Nc3cccc(N)c3)n2)cc1 [Compound 20]
1.81

Give log10(IC50) (Fc portion of human IgG) of the following compound: NCCNc1nc(NCCc2ccc(N)cc2)nc(Nc2cccc(N)c2)n1 [Compound 5]
2.58

Give log10(IC50) (Fc portion of human IgG) of the following compound: COc1ccc(Nc2nc(NCC3CC3)nc(Nc3cccc(N)c3)n2)cc1 [Compound 25]
1.88
